test system: L. major LV39 WT promastigotes; experiment: microbe, parasite or virus in culture; type: cell-based, Leishmania major; conditions: Leishmania major, LV39 WT grown in the presence of 10 μM MYR; read-out: EC50 for ITZ in WT + 10 μM myriocin
measured.endpoint: EC50

Input line: Identify measured EC50 associated with CCC(C)n1ncn(-c2ccc(N3CCN(c4ccc(OCC5COC(Cn6cncn6)(c6ccc(Cl)cc6Cl)O5)cc4)CC3)cc2)c1=O (stereo not shown)
Output line: ~4.6 nM

----------
test system: L. major spt2^− promastigotes; assay: microbe, parasite or virus in culture; assay type: cell-based, Leishmania major; conditions: spt2^− versus LV39 WT
measured.endpoint: Selectivity against spt2^− parasites (in words)

| compound | recorded.measurement |
| --- | --- |
| CC(C)[C@@H]1NC(=O)[C@H](Cc2ccccc2)NC(=O)[C@@H]2NC(=O)[C@H](Cc3ccccc3)NC(=O)[C@@H]3CCCN3C(=O)CNC(=O)[C@H](Cc3ccccc3)NC(=O)[C@@H]3CNCCCC[C@@H](C(=O)O)NC(=O)[C@@H]4NC(=O)[C@H](CC(N)=O)NC(=O)CNC(=O)[C@H]([C@@H](O)C(=O)O)NC(=O)[C@H](CSC[C@@H](NC(=O)[C@H](CCC(N)=O)NC(=O)[C@H](CCCNC(=N)N)NC(=O)[C@@H](N)CS[C@H]4C)C(=O)N[C@@H](CS[C@H]2C)C(=O)N3)NC1=O [Cinnamycin] | nearly equally well |
| C[C@@H]1[C@H](O)[C@@H](C)/C=C/C=C/C=C/C=C/C=C/C=C/C=C/[C@H](O[C@@H]2O[C@H](C)[C@@H](O)[C@H](N)[C@@H]2O)C[C@@H]2O[C@](O)(C[C@@H](O)C[C@@H](O)[C@H](O)CC[C@@H](O)C[C@@H](O)CC(=O)O[C@H]1C)C[C@H](O)[C@H]2C(=O)O [Amphotericin B] | nearly equally well |
